Target: human chemokine (C-C motif) receptor 8 (CCR8) (human, UniProt P51685 1-355); also: test concentration or dose not given here
Sequence (P51685 whole entry): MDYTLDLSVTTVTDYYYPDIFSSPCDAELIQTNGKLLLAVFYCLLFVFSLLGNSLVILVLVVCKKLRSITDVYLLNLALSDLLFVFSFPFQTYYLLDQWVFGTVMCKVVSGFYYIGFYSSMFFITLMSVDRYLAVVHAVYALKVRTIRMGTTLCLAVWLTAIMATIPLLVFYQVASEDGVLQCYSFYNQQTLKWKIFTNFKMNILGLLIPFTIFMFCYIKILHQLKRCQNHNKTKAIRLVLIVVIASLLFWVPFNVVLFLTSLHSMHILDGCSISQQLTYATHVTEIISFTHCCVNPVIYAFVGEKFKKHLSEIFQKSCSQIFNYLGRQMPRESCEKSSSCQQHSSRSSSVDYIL
Assay: cell-based or functional assay
measure: % hCCR8-Ba/F3 - THP-1 complexes (%)
Enter your answer as a number in %; do not include the unit.

AB5 (antibody, V domains shown, Hybridoma monoclonal; also called antibody 5; clone 5) VH: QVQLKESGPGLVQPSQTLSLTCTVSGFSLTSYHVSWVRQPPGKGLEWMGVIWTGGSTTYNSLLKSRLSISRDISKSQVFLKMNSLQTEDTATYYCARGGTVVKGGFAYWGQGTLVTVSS VL: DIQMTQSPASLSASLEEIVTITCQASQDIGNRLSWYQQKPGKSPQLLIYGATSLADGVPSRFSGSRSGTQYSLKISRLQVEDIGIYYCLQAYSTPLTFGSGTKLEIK    1.51
AB11 (antibody, V domains shown, Hybridoma monoclonal; also called antibody 11; clone 11) VH: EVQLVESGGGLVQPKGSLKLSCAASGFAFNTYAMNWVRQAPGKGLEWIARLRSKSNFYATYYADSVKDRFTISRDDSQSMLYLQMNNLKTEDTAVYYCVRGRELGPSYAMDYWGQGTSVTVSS VL: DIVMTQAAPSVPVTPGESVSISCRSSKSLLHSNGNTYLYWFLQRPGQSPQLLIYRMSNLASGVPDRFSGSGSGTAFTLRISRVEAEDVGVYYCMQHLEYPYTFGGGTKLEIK    1.12
AB6 (antibody, V domains shown) VH: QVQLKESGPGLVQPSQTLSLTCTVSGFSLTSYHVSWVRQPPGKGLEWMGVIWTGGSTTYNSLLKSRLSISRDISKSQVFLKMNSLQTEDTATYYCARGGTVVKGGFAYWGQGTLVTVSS VL: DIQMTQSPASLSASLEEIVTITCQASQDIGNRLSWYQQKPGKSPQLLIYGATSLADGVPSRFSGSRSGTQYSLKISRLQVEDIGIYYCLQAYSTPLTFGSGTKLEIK    1.88
AB15 (antibody, V domains shown, Hybridoma monoclonal; also called antibody 15; clone 15) VH: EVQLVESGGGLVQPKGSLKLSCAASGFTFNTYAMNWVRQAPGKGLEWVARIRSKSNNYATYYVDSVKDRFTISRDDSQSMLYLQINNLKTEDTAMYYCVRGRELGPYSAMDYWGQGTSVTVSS VL: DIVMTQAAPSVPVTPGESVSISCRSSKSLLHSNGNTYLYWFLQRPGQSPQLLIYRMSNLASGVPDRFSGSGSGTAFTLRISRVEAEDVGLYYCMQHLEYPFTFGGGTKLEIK    1.07

# evaluate next
Check the records and state % hCCR8-Ba/F3 - THP-1 complexes for AB2 (antibody, V domains shown, Hybridoma monoclonal; also called antibody 2; clone 2) VH: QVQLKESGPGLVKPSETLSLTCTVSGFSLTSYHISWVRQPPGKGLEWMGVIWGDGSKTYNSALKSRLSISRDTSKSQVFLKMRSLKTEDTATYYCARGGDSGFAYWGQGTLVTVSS VL: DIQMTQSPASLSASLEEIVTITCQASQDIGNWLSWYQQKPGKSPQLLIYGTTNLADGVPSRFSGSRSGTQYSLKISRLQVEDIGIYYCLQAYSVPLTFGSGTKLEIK 0.48
